Molecular target: RIP1 kinase (GST-RipK1 (1-375)) (Homo sapiens, UniProt Q13546)
Sequence (Q13546 1-375): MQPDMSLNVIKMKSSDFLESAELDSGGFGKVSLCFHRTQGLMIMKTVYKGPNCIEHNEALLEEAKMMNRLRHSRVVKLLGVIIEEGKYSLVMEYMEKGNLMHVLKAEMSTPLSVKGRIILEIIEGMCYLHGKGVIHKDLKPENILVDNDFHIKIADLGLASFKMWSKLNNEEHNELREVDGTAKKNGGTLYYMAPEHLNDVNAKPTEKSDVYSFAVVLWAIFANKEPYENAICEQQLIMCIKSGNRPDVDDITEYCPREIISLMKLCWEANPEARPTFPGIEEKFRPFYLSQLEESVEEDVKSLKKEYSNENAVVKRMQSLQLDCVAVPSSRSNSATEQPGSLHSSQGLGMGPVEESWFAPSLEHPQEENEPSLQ
Settings: average pIC50 after continued testing, FP competition binding; updated average after continued testing
# key: entry, value: IC50
Form entry: enter the amount, then its unit.

* O=C(N[C@H]1CCc2cc(Cl)ccc2NC1=O)c1nnc(Cc2ccccc2)[nH]1 | 20 nM

Which measured IC50 value corresponds to `Cc1nnc(-c2ccc3c(c2)N(C)C(=O)[C@@H](NC(=O)c2nnc(Cc4ccccc4)[nH]2)CO3)o1` ?
50.1 nM
